So I've got a bunch of binders here, and I need their Percent Similarity Score (KD on rN) values.
Target: T1, rat NGF (rat, UniProt P25427 122-241)
T1 construct: also called rN
T1 sequence (P25427 122-241 limits assumed): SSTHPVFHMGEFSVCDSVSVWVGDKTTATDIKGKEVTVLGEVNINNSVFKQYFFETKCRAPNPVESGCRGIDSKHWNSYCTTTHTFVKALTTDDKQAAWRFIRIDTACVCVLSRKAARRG
Test: SPR (Biacore T200), 100 nM mAb on NGF chip, similarity to parent mAb
Number in %, nothing else.

# Percent Similarity Score (KD on rN) (binder: can9L12VH_T58A (antibody, V domains shown) VH: EVQLVESGGDLVKPGGSLRLSCVASGFTFSSHGMHWVRQSPGKGLQWVAVINSGGSSAYYTDAVKGRFTISRDNAKNTVYLQMNSLRAEDTAMYYCAKESVGGWEQLVGPHFDYWGQGTLVIVSS VL: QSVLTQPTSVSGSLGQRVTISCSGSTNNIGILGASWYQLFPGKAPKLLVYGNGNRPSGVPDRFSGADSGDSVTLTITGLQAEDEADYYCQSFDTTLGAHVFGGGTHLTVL ) is 99.9

can9L12VH_Q106A (antibody, V domains shown) VH: EVQLVESGGDLVKPGGSLRLSCVASGFTFSSHGMHWVRQSPGKGLQWVAVINSGGSSTYYTDAVKGRFTISRDNAKNTVYLQMNSLRAEDTAMYYCAKESVGGWEALVGPHFDYWGQGTLVIVSS VL: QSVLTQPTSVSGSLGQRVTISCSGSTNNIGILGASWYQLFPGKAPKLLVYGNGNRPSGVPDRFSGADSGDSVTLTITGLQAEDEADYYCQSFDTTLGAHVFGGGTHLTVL has a reported Percent Similarity Score (KD on rN) of 99.9

Memo: can9L12VL_T26A (antibody, V domains shown) VH: EVQLVESGGDLVKPGGSLRLSCVASGFTFSSHGMHWVRQSPGKGLQWVAVINSGGSSTYYTDAVKGRFTISRDNAKNTVYLQMNSLRAEDTAMYYCAKESVGGWEQLVGPHFDYWGQGTLVIVSS VL: QSVLTQPTSVSGSLGQRVTISCSGSANNIGILGASWYQLFPGKAPKLLVYGNGNRPSGVPDRFSGADSGDSVTLTITGLQAEDEADYYCQSFDTTLGAHVFGGGTHLTVL , reported Percent Similarity Score (KD on rN): 99.2
